# TEST_TARGET: T1, rat SNAP-tagged mGlu2 receptor (wild-type rat mGlu2 subunit with an HA-tag and a SNAP inserted just after the … (rat, UniProt P31421 19-872, SNAP tag labelled with SNAP-Lumi4-Tb in the TR-FRET binding assay))
# T1 construct: whole, on cells; Transiently transfected HEK293 cells; also called SNAP-mGlu2; mGluR2; not shown: HA-tag inserted just after the signal peptide; SNAP tag inserted just after the signal peptide
# T1 sequence (P31421 19-872): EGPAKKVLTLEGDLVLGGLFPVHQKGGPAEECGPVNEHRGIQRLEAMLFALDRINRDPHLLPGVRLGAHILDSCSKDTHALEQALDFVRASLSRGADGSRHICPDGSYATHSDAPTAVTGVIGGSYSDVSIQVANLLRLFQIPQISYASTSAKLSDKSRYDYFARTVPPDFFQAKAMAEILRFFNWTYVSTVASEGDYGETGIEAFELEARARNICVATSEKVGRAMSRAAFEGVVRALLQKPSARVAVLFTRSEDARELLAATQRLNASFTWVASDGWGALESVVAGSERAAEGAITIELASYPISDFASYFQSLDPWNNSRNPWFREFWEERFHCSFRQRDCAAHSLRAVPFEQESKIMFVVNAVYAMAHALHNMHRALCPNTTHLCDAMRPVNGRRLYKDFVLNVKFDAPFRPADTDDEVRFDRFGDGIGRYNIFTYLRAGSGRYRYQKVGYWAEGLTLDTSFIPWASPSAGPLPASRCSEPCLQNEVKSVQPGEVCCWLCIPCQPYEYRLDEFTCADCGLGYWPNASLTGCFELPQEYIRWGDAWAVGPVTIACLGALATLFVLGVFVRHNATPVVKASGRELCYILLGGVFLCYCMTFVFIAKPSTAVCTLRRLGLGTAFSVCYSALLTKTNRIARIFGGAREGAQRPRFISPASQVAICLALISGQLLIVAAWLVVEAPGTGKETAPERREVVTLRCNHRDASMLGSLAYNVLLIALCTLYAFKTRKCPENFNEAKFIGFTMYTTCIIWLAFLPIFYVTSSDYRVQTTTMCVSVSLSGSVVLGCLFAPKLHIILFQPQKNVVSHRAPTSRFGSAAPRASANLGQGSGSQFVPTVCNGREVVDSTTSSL
# METHOD: TR-FRET saturation binding on HEK293 cells with Lumi4-Tb-labelled rat SNAP-mGlu2, anti-6His-d2; active conformation (1 uM LY379268)
READOUT_LABEL: pKd

The following binders have reported results that may help.
BINDER: IGF-1202 (IGF-1168 HcAb IGF-1159), biparatopic IGF1202-tag6xHIS (VHH) QVQLVQSGGGLVQAGGSLRLSCAASVRFFSINTMGWYRQAPGKQRELVADITSSGSTNYADSGKGRFTISRDNAKNTVYLQMNRLKPEDTAVYYCHADYKYTTHNTAWGQGTQVTVSSEPKIPQPQPKPQPQPQPQPQPKPQPKPEPQVQLVQSGGGLVQAGGSLRLSCAASGRTFSSFAMAWFRQAPGKEREFVAAISWSGSTGHADSVKGRFTITRDNAKNTVFLQMNSLKPEDTAVYYCALGKGSSYYYSPSGYDYWGQGTQVTVSSLEHHHHHH
DATA_VALUE: 9.27 -log10 M

BINDER: IGF-1201 (IGF-1168 GS IGF-1159) (VHH, Bivalent biparatopic nanobody, two VHH in tandem) QVQLVQSGGGLVQAGGSLRLSCAASVRFFSINTMGWYRQAPGKQRELVADITSSGSTNYADSGKGRFTISRDNAKNTVYLQMNRLKPEDTAVYYCHADYKYTTHNTAWGQGTQVTVSSGGGGSGGGGSGGGGSQVQLVQSGGGLVQAGGSLRLSCAASGRTFSSFAMAWFRQAPGKEREFVAAISWSGSTGHADSVKGRFTITRDNAKNTVFLQMNSLKPEDTAVYYCALGKGSSYYYSPSGYDYWGQGTQVTVSSLEHHHHHH
DATA_VALUE: 9.34 -log10 M

BINDER: IGF-1261 (IGF-1168 GS IGF-1168) (VHH) QVQLVQSGGGLVQAGGSLRLSCAASVRFFSINTMGWYRQAPGKQRELVADITSSGSTNYADSGKGRFTISRDNAKNTVYLQMNRLKPEDTAVYYCHADYKYTTHNTAWGQGTQVTVSSGGGGSGGGGSGGGGSQVQLVQSGGGLVQAGGSLRLSCAASVRFFSINTMGWYRQAPGKQRELVADITSSGSTNYADSGKGRFTISRDNAKNTVYLQMNRLKPEDTAVYYCHADYKYTTHNTAWGQGTQVTVSSLEHHHHHH
DATA_VALUE: 8.51 -log10 M

Query IGF-1252 (IGF-1159 HcAb IGF-1168) (VHH, Bivalent biparatopic nanobody, two VHH in tandem) QVQLVQSGGGLVQAGGSLRLSCAASGRTFSSFAMAWFRQAPGKEREFVAAISWSGSTGHADSVKGRFTITRDNAKNTVFLQMNSLKPEDTAVYYCALGKGSSYYYSPSGYDYWGQGTQVTVSSEPKIPQPQPKPQPQPQPQPQPKPQPKPEPQVQLVQSGGGLVQAGGSLRLSCAASVRFFSINTMGWYRQAPGKQRELVADITSSGSTNYADSGKGRFTISRDNAKNTVYLQMNRLKPEDTAVYYCHADYKYTTHNTAWGQGTQVTVSSLEHHHHHH yields pKd of 8.77 -log10 M
